Tested on: MV4;11 cells
measurement description: Cell viability assay (CellTiter-Glo) in MV4;11 cells, alone or with gilteritinib
Type: cell-based
run parameters: Homo sapiens, MV4-11, 72 h, MV4;11 cells, compound with gilteritinib 10 nM, three days, CellTiter-Glo; read-out: MV4; 11 IC50 gilteritinib
pIC50: −log10 of the molar value.
parameter: pIC50

molecule	pIC50
CN1CCCC(c2cn([C@H]3C[C@H](CNc4ccc5c(c4)C(=O)N(C4CCC(=O)NC4=O)C5=O)C3)nc2C2CC2)C1 (stereo partly shown)	< 6.00
Cc1nc(-c2cn([C@H]3C[C@H](CNc4ccc5c(c4)C(=O)N(C4CCC(=O)NC4=O)C5=O)C3)nc2C2CC2)ccc1Cl (stereo partly shown)	> 8.00
O=C1CCC(N2C(=O)c3ccc(NCCCC4CC(n5cc(-c6cnc7ccc(CC8CNC8)cc7n6)cn5)C4)cc3C2=O)C(=O)N1 (stereo not shown)	6.00 to 7.00
O=C1CCC(N2C(=O)c3ccc(NCCC[C@H]4C[C@H](n5ccc(C6CC6)n5)C4)cc3C2=O)C(=O)N1 (stereo partly shown)	6.00 to 7.00
O=C1CCC(N2C(=O)c3ccc(NC[C@H]4C[C@H](n5cc(-c6ncccc6C6CC6)c(C6CC6)n5)C4)cc3C2=O)C(=O)N1 (stereo partly shown)	> 8.00
Cn1cccc(-c2cn([C@H]3C[C@H](CNc4ccc5c(c4)C(=O)N(C4CCC(=O)NC4=O)C5=O)C3)nc2C2CC2)c1=O (stereo partly shown)	6.00 to 7.00

Please turn your attention to the following entry.
Req: Field: pIC50 (MV4;11 cells). Entry: O=C1CCC(N2C(=O)c3ccc(NC[C@H]4C[C@H](n5cc(N6CCCCC6)c(C6CC6)n5)C4)cc3C2=O)C(=O)N1 (stereo partly shown)
Resp: 7.00 to 8.00

---

System: MOLM-13 cells
measurement description: Cell viability assay (CellTiter-Glo) in MOLM-13 cells, alone or with gilteritinib
Type: cell-based
run parameters: Homo sapiens, MOLM-13, 72 h, read-out: MOLM-13 IC50 gilteritinib
Listed here are compounds together with their documented pIC50.
Just the number, please; pIC50 means minus log10 of the concentration in mol/L.

compound	recorded value
O=C1CCC(N2C(=O)c3ccc(NCCCCCC(=O)N4CCN(c5ccccn5)CC4)cc3C2=O)C(=O)N1 (stereo not shown)	8.15

Next:
Req: Dear colleague, I am looking for the recorded pIC50 of the following compound: O=C1CCC(N2C(=O)c3ccc(NCCCCCC(=O)N4CCC(c5ccccc5)CC4)cc3C2=O)C(=O)N1 (stereo not shown)
Resp: 9.52

---

Test system: MV4;11 cells
measurement description: Cell viability assay (CellTiter-Glo) in MV4;11 cells, alone or with gilteritinib
Type: cell-based
run parameters: Homo sapiens, MV4-11, 72 h, MV4;11 cells, without gilteritinib, 3 days, CellTiter-Glo; read-out: MV4; 11 IC50
parameter: IC50 (nM)

A. O=C1CCC(N2C(=O)c3ccc(NCCCCCC(=O)N4CCC(n5cc(-c6cnc7cccc(Br)c7n6)cn5)CC4)cc3C2=O)C(=O)N1 (stereo not shown)
B. CCc1nc(C(N)=O)c(Nc2ccc(N3CCC(N4CCN(C)CC4)CC3)c(OC)c2)nc1NC1CCOCC1 [gilteritinib, reference compound]
Req: Look at A and B . Which one has the lower recorded IC50 number? Identify your pick by its label.
Resp: B
